- Experimental target: Aromatase (Homo sapiens, UniProt P11511)
- Sequence (P11511 whole entry): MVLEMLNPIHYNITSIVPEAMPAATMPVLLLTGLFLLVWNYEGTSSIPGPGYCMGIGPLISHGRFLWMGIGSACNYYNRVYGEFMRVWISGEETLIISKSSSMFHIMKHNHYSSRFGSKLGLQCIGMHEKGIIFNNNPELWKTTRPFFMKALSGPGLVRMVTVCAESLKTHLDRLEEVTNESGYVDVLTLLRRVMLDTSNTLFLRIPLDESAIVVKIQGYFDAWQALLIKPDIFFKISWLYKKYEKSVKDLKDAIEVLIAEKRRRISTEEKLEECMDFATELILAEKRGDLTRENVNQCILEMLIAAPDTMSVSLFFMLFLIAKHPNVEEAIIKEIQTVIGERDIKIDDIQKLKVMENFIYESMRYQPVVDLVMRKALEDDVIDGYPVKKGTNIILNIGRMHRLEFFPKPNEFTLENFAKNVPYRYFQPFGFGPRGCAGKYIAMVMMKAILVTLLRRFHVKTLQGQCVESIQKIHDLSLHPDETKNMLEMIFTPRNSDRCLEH
Measure name: Ki (nM)
Give a bare numeral; the unit nM is implied.

[ask] Output measured Ki for this item: C[C@]12CCC(=O)C=C1CCC1C2CC[C@]2(C)C(=O)CCC12 (stereo partly drawn) [[1beta-3H] androstenedione]
[reply] 20

---

- Experimental target: UniProtKB P11511
- Sequence (P11511 whole entry): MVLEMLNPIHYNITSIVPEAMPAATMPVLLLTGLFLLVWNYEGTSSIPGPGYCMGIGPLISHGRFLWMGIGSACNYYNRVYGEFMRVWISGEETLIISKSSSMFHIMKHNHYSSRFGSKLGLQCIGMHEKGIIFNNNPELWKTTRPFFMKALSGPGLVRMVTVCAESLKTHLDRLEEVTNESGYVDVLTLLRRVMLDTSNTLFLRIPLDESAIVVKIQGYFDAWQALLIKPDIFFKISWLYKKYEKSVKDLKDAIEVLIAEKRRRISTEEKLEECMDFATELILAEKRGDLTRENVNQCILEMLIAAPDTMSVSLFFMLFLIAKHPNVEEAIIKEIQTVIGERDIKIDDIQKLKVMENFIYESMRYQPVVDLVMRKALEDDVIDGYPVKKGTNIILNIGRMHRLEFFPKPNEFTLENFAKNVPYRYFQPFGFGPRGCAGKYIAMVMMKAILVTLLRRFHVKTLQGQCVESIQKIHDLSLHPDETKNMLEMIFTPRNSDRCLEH
Measure name: pIC50
Note: pIC50 values are expressed as the negative base-10 logarithm of concentration in M.

[ask] Supply recorded pIC50 for C[C@]12CCC(=O)C=C1CCC1C2CC[C@]2(C)C(=O)CCC12 (stereo partly drawn) [[1beta-3H] androstenedione] here.
[reply] 6.52
